Measurement record for MMP-16 (Homo sapiens); quantity recorded: IC50.
ASSAY_METRIC: IC50 (µM)

1) O=C(O)[C@H]1[C@H](Cn2nnc3ccccc3c2=O)CC[C@@H]1C(=O)c1ccc(OCC2CCCC2)cc1 (racemic) : 0.17
2) O=C(O)[C@@H]1[C@@H](Cn2nnc3ccc(C(F)(F)F)cc3c2=O)CC[C@H]1C(=O)c1ccc(OCC2CCCC2)cc1 (single isomer, unassigned) : 0.1
3) Cc1ccc2nnn(C[C@H]3CC[C@@H](C(=O)c4ccc(OCc5cccc(OC(F)(F)F)c5)cc4)[C@@H]3C(=O)O)c(=O)c2c1 (single isomer, unassigned) : 2.1

(a) Cc1ccc2nnn(C[C@H]3CC[C@@H](C(=O)c4ccc(OCC5CCCCC5)cc4)[C@@H]3C(=O)O)c(=O)c2c1 (single isomer, unassigned)
(b) O=C(O)[C@@H]1[C@@H](Cn2nnc3ccc(C(F)(F)F)cc3c2=O)CC[C@H]1C(=O)c1ccc(SCc2ccc(Cl)c(Cl)c2)cc1 (single isomer, unassigned)
Query block: Which of the two gives a bigger number for IC50: a or b ? In your reply, give the label of the chosen option.
Result block: b

* * *

- SYSTEM_TESTED: MMP-9 (Homo sapiens)
- Sequence (P14780 107-707 limits assumed): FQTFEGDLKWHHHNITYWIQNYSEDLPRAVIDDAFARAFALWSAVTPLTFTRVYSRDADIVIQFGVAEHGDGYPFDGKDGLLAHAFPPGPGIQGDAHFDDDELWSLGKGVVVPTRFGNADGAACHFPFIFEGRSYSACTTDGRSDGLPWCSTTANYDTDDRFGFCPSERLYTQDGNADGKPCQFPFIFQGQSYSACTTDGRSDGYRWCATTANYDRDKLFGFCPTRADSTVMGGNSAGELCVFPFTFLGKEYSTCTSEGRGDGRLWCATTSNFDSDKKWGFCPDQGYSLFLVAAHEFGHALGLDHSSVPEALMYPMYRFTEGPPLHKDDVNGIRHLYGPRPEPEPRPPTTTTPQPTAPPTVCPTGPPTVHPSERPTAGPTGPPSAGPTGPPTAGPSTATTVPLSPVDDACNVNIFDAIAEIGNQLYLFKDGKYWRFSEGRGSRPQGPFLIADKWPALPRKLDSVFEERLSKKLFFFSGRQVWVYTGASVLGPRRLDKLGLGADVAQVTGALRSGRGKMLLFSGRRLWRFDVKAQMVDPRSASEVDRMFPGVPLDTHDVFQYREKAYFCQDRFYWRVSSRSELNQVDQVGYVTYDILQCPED
pIC50: −log10 of the molar value.
ASSAY_METRIC: pIC50

Known pIC50 results, listed for orientation:
1) CCCCCSc1ccc(C(=O)[C@H]2CC[C@@H](Cn3nnc4ccc(C(F)(F)F)cc4c3=O)[C@@H]2C(=O)O)cc1 (racemic) : 7.26
2) Cc1cccc(COc2ccc(C(=O)[C@H]3CC[C@@H](Cn4nnc5ccc(C(F)(F)F)cc5c4=O)[C@@H]3C(=O)O)cc2)c1 (racemic) : 6.64

(1) Cc1ccc2nnn(C[C@H]3CC[C@@H](C(=O)c4ccc(OCc5ccccc5)cc4)[C@@H]3C(=O)O)c(=O)c2c1 (single isomer, unassigned)
(2) O=C(O)[C@H]1[C@H](Cn2nnc3ccc(C(F)(F)F)cc3c2=O)CC[C@@H]1C(=O)c1ccc(OCC2CCCCC2)cc1 (racemic)
(3) O=C(O)[C@H]1[C@H](Cn2nnc3ccc(C(F)(F)F)cc3c2=O)CC[C@@H]1C(=O)c1ccc(SCc2ccc(Cl)c(Cl)c2)cc1 (racemic)
Query block: List from greatest to least pIC50. List labels; respect the requested ordering.
Result block: 1, 2, 3
(1: 7.89, 2: 6.77, 3: 5.49)

* * *

- SYSTEM_TESTED: MMP-14 (Homo sapiens)
pIC50: −log10 of the molar value.
ASSAY_METRIC: pIC50

1) O=C(O)[C@@H]1[C@@H](Cn2nnc3ccc(C(F)(F)F)cc3c2=O)CC[C@H]1C(=O)c1ccc(OCCC2CCCC2)cc1 (single isomer, unassigned) [Example 55] : 5.62
2) O=C(O)[C@@H]1[C@@H](Cn2nnc3ccc(C(F)(F)F)cc3c2=O)CC[C@H]1C(=O)c1ccc(OCC2CCCCC2)cc1 (single isomer, unassigned) [Example 41] : 6.96
3) Cc1cccc(COc2ccc(C(=O)[C@@H]3CC[C@H](Cn4nnc5ccc(C(F)(F)F)cc5c4=O)[C@H]3C(=O)O)cc2)c1 (single isomer, unassigned) [Example 16] : 6.49

(1) Cc1ccc2nnn(C[C@@H]3CC[C@H](C(=O)c4ccc(OCc5cccc(C(F)(F)F)c5)cc4)[C@H]3C(=O)O)c(=O)c2c1 (racemic) [Example 100]
(2) O=C(O)[C@@H]1[C@@H](Cn2nnc3ccc(C(F)(F)F)cc3c2=O)CC[C@H]1C(=O)c1ccc(OCc2ccc(F)cc2)cc1 (single isomer, unassigned) [Example 13]
Query block: Given 1 and 2 , report the one with the higher recorded pIC50. Please identify the chosen entry by its label.
Result block: 2
(2: 6.82, 1: 6.14)
